Ref: the kinase profiling compilation of Christmann-Franck et al. (2016)

- assayed.target: MAPK8 (human)
- assay.comment: radiometric filter-binding kinase assay, Kinase HotSpot
- assay.conditions: compound 0.5 µM; ATP 10 µM
property: residual activity (%)
Respond numerically; units are % and should not be typed.

compound=O=C1Nc2ccccc2/C1=C\c1c(Cl)[nH]c2ccccc12 reported_value=93.5

Memo: "COc1ccc(-c2cnc3c(-c4ccsc4)cnn3c2)cc1" , reported residual activity: 100

Memo: "CC(C)(C)c1nc2c3ccc(F)cc3c3c(=O)[nH]ccc3c2[nH]1" , reported residual activity: 73.7

----------
- assayed.target: MARK3 (human)
- assay.comment: radiometric filter-binding kinase assay, Kinase HotSpot
- assay.conditions: compound 0.5 µM; ATP 10 µM
Note to self: use fulfilled only for residual activity readings below 90%; a reading exactly at 90% still gets not fulfilled.

compound=O=C1Nc2cc(Br)ccc2/C1=C1/Nc2ccccc2/C1=N\O assayed_target="MARK3 (human)" discrete_label=fulfilled

Q) In plain terms, does "CC(C)(C)c1nc2c3ccc(F)cc3c3c(=O)[nH]ccc3c2[nH]1" come in under 90% for residual activity?
A) fulfilled

Q) In plain terms, does "CCN1/C(=C/C(C)=O)Sc2ccc(OC)cc21" come in under 90% for residual activity?
A) not fulfilled

Q) In plain terms, does "O=c1cc(-c2cccc3c2Sc2ccccc2S3)oc(N2CCOCC2)c1" come in under 90% for residual activity?
A) not fulfilled

Q) In plain terms, does "O=C(Nc1ccc(Cl)cc1)c1ccccc1NCc1ccncc1" come in under 90% for residual activity?
A) not fulfilled

Q) In plain terms, does "O=C1Cc2c([nH]c3ccc([N+](=O)[O-])cc23)-c2ccccc2N1" come in under 90% for residual activity?
A) fulfilled

Q) In plain terms, does "CC(C)[C@H](CO)Nc1nc(Nc2cccc(Cl)c2)c2ncn(C(C)C)c2n1" come in under 90% for residual activity?
A) not fulfilled

Q) In plain terms, does "Nc1nc(Nc2ccc(S(N)(=O)=O)cc2)nn1C(=O)c1c(F)cccc1F" come in under 90% for residual activity?
A) fulfilled

Q) In plain terms, does "Cc1cc2ncc(-c3ccccc3)nc2cc1C" come in under 90% for residual activity?
A) not fulfilled

Q) In plain terms, does "Nc1nc(Nc2ccc(S(N)(=O)=O)cc2)nn1C(=S)Nc1c(F)cccc1F" come in under 90% for residual activity?
A) fulfilled

Q) In plain terms, does "CCCNC(=O)Nc1ccc(Oc2ncnc3cc(OC)c(OC)cc23)cc1Cl" come in under 90% for residual activity?
A) not fulfilled

Q) In plain terms, does "COc1cc2ncnc(Nc3ccc(F)c(Cl)c3)c2cc1OCCCN1CCOCC1" come in under 90% for residual activity?
A) not fulfilled

Q) In plain terms, does CS(=O)c1ccc(-c2nc(-c3ccc(F)cc3)c(-c3ccncc3)[nH]2)cc1 (stereo unspecified) come in under 90% for residual activity?
A) not fulfilled

Q) In plain terms, does O=C(NC(NC(=S)Nc1ccc(F)c([N+](=O)[O-])c1)C(Cl)(Cl)Cl)C(c1ccccc1)c1ccccc1 (stereo unspecified) come in under 90% for residual activity?
A) not fulfilled
